Biological target: Voltage-dependent T-type calcium channel subunit alpha-1H (Homo sapiens);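 further: channel activity triggered by adding a high calcium stimulation buffer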
Sequence (O95180 whole entry): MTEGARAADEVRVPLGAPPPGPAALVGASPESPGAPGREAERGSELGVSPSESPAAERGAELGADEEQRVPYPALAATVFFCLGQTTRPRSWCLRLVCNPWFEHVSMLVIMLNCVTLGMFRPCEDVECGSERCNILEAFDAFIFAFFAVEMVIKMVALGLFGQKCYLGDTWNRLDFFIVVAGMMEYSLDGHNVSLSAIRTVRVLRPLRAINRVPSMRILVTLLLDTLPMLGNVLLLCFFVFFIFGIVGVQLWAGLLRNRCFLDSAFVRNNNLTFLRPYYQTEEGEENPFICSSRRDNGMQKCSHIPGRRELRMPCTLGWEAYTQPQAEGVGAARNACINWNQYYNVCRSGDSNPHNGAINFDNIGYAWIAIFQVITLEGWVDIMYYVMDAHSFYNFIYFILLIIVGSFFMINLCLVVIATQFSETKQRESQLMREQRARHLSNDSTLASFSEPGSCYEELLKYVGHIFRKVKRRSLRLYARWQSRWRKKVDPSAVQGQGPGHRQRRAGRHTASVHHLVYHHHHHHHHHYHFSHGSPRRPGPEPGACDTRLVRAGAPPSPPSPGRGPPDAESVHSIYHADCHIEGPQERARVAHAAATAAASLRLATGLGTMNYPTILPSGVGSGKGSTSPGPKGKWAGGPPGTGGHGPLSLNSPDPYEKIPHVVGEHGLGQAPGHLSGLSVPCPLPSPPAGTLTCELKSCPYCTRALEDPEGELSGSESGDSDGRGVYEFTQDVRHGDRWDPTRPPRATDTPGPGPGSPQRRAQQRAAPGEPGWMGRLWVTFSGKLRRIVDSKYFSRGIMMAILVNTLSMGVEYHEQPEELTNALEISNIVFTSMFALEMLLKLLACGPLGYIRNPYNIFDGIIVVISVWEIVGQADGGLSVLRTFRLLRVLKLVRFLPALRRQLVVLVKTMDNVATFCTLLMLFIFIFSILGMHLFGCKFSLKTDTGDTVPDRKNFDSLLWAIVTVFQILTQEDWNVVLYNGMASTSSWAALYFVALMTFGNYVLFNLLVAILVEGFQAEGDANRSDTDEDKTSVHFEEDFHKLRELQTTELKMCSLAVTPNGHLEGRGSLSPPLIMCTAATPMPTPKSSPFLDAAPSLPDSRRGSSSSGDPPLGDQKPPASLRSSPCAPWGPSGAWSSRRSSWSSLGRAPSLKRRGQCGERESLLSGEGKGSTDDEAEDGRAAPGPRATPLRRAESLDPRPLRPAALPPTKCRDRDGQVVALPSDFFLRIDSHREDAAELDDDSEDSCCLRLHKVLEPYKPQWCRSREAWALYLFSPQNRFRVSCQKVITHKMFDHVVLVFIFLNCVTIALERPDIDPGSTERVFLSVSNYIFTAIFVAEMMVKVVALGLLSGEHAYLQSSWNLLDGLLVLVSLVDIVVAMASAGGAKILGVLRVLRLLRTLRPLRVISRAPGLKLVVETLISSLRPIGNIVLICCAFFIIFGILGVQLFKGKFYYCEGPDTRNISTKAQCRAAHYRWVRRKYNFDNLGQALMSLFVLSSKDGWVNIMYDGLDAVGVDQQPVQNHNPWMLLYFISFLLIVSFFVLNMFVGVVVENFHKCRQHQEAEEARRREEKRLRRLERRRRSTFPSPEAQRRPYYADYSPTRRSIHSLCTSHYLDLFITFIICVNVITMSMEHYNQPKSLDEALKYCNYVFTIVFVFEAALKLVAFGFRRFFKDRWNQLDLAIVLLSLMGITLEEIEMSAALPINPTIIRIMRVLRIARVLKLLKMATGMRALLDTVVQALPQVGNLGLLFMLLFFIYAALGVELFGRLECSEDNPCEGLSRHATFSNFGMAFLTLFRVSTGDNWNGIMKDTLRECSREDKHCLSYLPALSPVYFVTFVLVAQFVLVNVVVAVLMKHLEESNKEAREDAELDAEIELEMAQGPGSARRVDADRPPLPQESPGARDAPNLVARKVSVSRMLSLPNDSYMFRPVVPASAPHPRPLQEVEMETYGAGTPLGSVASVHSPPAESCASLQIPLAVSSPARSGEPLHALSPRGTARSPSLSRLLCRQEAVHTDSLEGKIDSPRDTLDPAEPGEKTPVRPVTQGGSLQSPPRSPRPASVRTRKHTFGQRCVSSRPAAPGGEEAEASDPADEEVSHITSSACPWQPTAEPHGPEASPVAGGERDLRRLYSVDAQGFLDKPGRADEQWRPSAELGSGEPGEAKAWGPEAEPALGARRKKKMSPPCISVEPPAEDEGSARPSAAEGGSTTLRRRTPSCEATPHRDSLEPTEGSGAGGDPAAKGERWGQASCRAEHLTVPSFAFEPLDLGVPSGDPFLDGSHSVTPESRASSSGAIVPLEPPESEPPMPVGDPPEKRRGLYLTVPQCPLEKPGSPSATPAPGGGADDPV
Format: functional
Active and inactive are the calls of the source.
Quick list: EC50 per entry.

| Molecule | EC50 |
| --- | --- |
| Cc1ccc2[nH]cc(CCNC(=O)Nc3ccccc3)c2c1 | 5.23 µM (active) |
| CCOC(=O)c1sc(NC(=O)C(CC)OC(=O)C(CC(C)C)NC(=O)c2ccccc2)nc1C (stereo not given) | 5.2 µM (active) |
| O=C(NCCCN1CCN(c2cccc(Cl)c2)CC1)C1(S(=O)(=O)c2ccc(Cl)cc2)CC1 | 6.17 µM (active) |
| Cc1ccc(S(=O)(=O)N(CC(=O)N2CCN(c3ccccc3F)CC2)C2CCCCC2)cc1 | 2.58 µM (active) |
| O=C(CN1CCCCCC1)N1c2ccccc2Sc2ccc(C(F)(F)F)cc21 | 7.61 µM (active) |

====

Target: Protein skinhead-1 (Caenorhabditis elegans)
Sequence (P34707 whole entry): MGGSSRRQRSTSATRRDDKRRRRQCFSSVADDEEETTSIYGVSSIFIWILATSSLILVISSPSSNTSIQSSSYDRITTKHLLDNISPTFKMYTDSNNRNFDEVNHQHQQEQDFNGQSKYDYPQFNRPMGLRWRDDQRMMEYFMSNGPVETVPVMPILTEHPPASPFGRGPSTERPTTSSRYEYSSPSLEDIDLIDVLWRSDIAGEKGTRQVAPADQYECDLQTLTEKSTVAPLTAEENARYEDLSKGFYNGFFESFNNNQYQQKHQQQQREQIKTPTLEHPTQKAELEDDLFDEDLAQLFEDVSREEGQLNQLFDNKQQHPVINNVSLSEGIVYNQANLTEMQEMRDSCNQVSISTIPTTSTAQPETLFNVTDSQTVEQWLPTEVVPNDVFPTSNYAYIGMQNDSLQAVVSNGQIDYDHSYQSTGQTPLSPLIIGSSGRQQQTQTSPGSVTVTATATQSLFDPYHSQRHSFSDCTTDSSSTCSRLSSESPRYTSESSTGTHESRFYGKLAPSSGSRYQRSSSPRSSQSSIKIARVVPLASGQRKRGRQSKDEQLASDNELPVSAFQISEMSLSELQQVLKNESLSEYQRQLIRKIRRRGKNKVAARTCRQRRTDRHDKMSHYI
Format: functional
The source made the active and inactive calls.
Possible outcomes: y (active), n (inactive)

| Compound | Qualitative label |
| --- | --- |
| c1ccc(-c2csc(N3CCN(c4ccccn4)CC3)n2)cc1 | y |
| Clc1ccccc1-c1nnc(-c2ccccc2Cl)o1 | n |
| O=C(Nc1ccc(N2CCCCC2)cc1)c1ccc2ccccc2n1 | n |
| CC(C)(C)C(=O)Nc1cc2nn(-c3ccccc3)nc2cc1Cl | n |
| O=C(COC(=O)C12CC3CC(CC(O)(C3)C1)C2)Nc1cccc(Br)c1 | n |
| CCn1c(CSc2nnc(-c3ccncc3)n2C)nc2cc(C(=O)O)ccc21 | n |
| COCCNC(=O)CC(c1ccccc1)c1ccccc1 | n |
| OCc1cccc(-c2csc(C(O)(c3ccccc3)C(F)(F)F)n2)c1 (stereo unspecified) | n |
| O=C(Nc1ccc(OC(F)F)c(Cl)c1)c1cccc(OC(F)F)c1 | y |
| Clc1ccc2nc(N3CCCCC3)sc2c1 | y |
| CCOC(=O)c1ccc(Nc2nnc(C(C)(C)C)c(O)n2)cc1 | n |
